# test summary: proliferation blockers of H69AR lung cancer cells, primary screen, cell-based, human, 86K library (AID 598);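 note: multidrug resistant small cell line overexpressing MRP-1 efflux transporter; 100% = mean luminescence of untreated control wells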
# condition description: H69AR lung tumor viability, ATP luminescence, 72 h; at 10 µM; stronger effect = lower value
The campaign covered roughly 85,000 compounds. About 5,100 (6%) were called active. The entries come from a sample that favours actives as a whole.
So I've got a bunch of compounds here, and I need their viability values.
Numbers only, in %.

Example entries and their recorded answers appear below.
[[record]]
compound = "CCOCc1nnc(NC(=O)CSc2ccc(C)cc2)s1"
value = 94.8

[[record]]
compound = "Cc1ccc(S(=O)(=O)N(C)C2(C)CCS(=O)(=O)C2)cc1 (centres undefined)"
value = 109


List the reported viability of each compound below.
1. CC(C)(C)c1ccc(OC2=CS(=O)(=O)c3ccccc32)cc1
2. COc1ccc(NC(=O)C(CC(C)C)NS(=O)(=O)c2ccc3c(c2)CCN3C(C)=O)cc1OC (centres undefined)

1. 88
2. 90.6
